- System name: M1 muscarinic receptor (Homo sapiens)
- Sequence (P11229 whole entry): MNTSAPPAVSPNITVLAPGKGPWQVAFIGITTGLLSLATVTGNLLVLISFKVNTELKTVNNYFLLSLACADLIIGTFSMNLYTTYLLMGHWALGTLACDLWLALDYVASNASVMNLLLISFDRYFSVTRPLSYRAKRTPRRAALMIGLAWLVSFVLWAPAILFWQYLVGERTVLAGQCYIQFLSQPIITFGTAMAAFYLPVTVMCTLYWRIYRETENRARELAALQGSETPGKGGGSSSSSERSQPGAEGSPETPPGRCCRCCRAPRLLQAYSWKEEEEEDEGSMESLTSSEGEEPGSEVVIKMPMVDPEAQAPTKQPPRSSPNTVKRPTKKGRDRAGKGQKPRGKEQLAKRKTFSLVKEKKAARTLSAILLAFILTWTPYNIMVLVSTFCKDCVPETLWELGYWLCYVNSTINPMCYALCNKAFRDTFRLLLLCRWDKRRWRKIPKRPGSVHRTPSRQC
Measurement type: pKi
pKi (log units): -log10 of the concentration in mol/L.

Q: If you can, please state the reported pKi value of CN1C2CCC1CC(OC(=O)C(CO)(Cc1ccccc1)c1ccccc1)C2 (racemic) .
Ans: 6.08

----------
- System name: M3 muscarinic receptor (Homo sapiens)
- Sequence (P20309 whole entry): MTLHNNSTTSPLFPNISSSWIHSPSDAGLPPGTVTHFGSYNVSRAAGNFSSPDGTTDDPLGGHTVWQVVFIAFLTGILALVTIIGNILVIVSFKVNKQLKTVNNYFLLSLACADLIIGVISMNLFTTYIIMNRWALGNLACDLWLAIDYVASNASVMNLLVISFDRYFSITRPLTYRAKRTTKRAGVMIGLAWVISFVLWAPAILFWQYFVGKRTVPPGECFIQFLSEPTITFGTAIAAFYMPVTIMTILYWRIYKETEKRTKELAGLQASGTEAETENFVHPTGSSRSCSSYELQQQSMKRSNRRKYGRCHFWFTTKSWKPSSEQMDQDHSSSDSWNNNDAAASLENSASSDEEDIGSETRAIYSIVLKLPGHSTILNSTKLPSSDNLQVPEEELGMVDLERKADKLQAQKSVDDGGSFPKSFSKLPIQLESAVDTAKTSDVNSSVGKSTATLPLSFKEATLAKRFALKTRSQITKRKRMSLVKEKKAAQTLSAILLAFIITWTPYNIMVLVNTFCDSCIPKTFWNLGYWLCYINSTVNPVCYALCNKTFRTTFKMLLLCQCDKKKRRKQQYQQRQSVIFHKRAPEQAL
Measurement type: Ki (nM)
Supply the numeric figure in nM, leaving out any unit text.

Q: If you can, please state the reported Ki value of C[N+]1(C)[C@@H]2CC[C@H]1C[C@@H](OC(=O)C(CO)c1ccccc1)C2 (stereo partly shown) .
Ans: 2.4

----------
- System name: M5 muscarinic receptor (Homo sapiens)
- Sequence (P08912 1-532): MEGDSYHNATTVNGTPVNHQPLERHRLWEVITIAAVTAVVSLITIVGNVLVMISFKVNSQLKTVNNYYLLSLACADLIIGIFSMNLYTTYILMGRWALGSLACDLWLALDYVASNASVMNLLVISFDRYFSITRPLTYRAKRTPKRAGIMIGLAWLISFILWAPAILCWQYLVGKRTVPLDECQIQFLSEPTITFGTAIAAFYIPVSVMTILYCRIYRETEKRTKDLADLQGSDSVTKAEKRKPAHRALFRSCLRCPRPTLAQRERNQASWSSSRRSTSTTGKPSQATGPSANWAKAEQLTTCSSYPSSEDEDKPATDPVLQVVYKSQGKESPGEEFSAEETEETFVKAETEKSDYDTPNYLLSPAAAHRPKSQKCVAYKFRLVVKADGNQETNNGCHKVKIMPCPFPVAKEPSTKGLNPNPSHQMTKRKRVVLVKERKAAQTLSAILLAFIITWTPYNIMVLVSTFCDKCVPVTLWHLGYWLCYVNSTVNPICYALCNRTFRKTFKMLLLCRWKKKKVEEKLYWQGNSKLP
Measurement type: Ki (nM)
Supply the numeric figure in nM, leaving out any unit text.

Q: If you can, please state the reported Ki value of C[N+]1(C)[C@@H]2CC[C@H]1C[C@@H](OC(=O)C(CO)c1ccccc1)C2 (stereo partly shown) .
Ans: 2.2
